Entry source: patent US20040086502A1

# study.target: T1, VEGF(8-109) (UniProt P15692 214-315)
# T1 construct: range 8-109; Covalently coupled to the BIACORE chip (EDC/NHS); also called vascular endothelial growth factor
# T1 sequence (looked up): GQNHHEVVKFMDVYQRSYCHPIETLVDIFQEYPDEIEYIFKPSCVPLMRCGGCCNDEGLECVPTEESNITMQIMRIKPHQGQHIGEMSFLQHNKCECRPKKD
# protocol.description: SPR (BIACORE-2000); reference (wt) is Y0192
The following binders are listed with their measured Kd(wt)/Kd(mut) values.
Numeric answer only, unit ratio assumed.

// solved cases for Kd(wt)/Kd(mut) follow
binder	value.observed
Y0240-1 Fab (Fab, V domains shown) VH: EVQLVESGGGLVQPGGSLRLSCAASGYTFTNYGMNWVRQAPGKGLEWVGWINTYTGEPTYAADFKRRFTFSLDTSKSTAYLQMNSLRAEDTAVYYCAKYPHYYLTDHKSHWYFDVWGQGTL VL: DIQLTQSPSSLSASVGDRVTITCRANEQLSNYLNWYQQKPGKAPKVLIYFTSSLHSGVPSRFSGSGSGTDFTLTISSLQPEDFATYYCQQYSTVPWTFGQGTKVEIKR	5.8
Y0239-8 Fab (Fab, V domains shown) VH: EVQLVESGGGLVQPGGSLRLSCAASGYTFTNYGMNWVRQAPGKGLEWVGWINTYTGEPTYAADFKRRFTFSLDTSKSTAYLQMNSLRAEDTAVYYCAKYPHYYLRDGRSSHWYFDVWGQGTL VL: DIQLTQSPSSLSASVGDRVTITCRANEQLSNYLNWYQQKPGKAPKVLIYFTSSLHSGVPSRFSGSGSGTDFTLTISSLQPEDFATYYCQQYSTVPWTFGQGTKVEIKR	5.8
Y0242-1 Fab (Fab, V domains shown, Clone from library YC-90, made on the Y0192 template; also called point mutant Y54W) VH: EVQLVESGGGLVQPGGSLRLSCAASGYTFTNYGMNWVRQAPGKGLEWVGWINTWTGEPTYAADFKRRFTFSLDTSKSTAYLQMNSLRAEDTAVYYCAKYPHYYGSSHWYFDVWGQGTL VL: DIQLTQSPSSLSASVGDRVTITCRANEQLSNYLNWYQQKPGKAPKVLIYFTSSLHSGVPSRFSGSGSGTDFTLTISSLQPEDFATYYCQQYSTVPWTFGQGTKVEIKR	1.6
Y0239-9 Fab (Fab, V domains shown, Only three residues stand in place of G104, although the library was designed with four or five) VH: EVQLVESGGGLVQPGGSLRLSCAASGYTFTNYGMNWVRQAPGKGLEWVGWINTYTGEPTYAADFKRRFTFSLDTSKSTAYLQMNSLRAEDTAVYYCAKYPHYYLGESSHWYFDVWGQGTL VL: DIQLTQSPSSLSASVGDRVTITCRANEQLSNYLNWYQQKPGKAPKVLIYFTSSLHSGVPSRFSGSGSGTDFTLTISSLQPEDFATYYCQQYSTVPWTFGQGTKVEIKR	6

Here is the next item to consider.
Field Kd(wt)/Kd(mut) (entry Y0241-7 Fab (Fab, V domains shown, Clone from library YC-86, made on the Y0192 template; The text names point mutations only at T28 and F29; The printed stretch ends in GIN, so residue 34 may also differ from the parent; this change is not applied here) VH: EVQLVESGGGLVQPGGSLRLSCAASGYDWTNYGINWVRQAPGKGLEWVGWINTYTGEPTYAADFKRRFTFSLDTSKSTAYLQMNSLRAEDTAVYYCAKYPHYYGSSHWYFDVWGQGTL VL: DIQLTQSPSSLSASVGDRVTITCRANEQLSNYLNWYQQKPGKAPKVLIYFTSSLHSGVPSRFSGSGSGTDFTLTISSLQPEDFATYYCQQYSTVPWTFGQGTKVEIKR ) reads 1
